Source listed as patent US7956196B2.

Where a name gives a salt, the structure may show the parent alone.

| molecule | melting point |
| --- | --- |
| N#Cc1ccc(Cn2c(=NC(=O)c3cccc(Cl)c3)n(Cc3cccc4cccnc34)c3ccccc32)cc1 | 160 °C |
| N#Cc1ccc(Cn2c(=NC(=O)c3cc(C(F)(F)F)cc(C(F)(F)F)c3)n(Cc3cccc4cccnc34)c3ccccc32)cc1 | 190 °C |
| COC(=O)c1ccc(Cn2c(=NC(=O)c3cc(C(F)(F)F)cc(C(F)(F)F)c3)n(Cc3cccc4cccnc34)c3ccccc32)cc1 | 204 °C |
| COc1cc(C(=O)N=c2n(Cc3ccc(C#N)cc3)c3ccccc3n2Cc2cccc3cccnc23)cc(OC)c1OC | 108 °C |
| COC(=O)c1ccc(Cn2c(=NCCc3ccc(Br)cc3)n(Cc3cccc4cccnc34)c3ccccc32)cc1 (as salt: HCl) | 128 °C |
| N#Cc1ccc(Cn2c(=NC(=O)c3ccc(Oc4ccccc4)cc3)n(Cc3cccc4cccnc34)c3ccccc32)cc1 | 66 °C |
| N#Cc1ccc(Cn2c(=NCCC(c3ccccc3)c3ccccc3)n(Cc3cccc4cccnc34)c3ccccc32)cc1 | 184 °C |
